Record form. Attribute: inhibition at 0.111 µM. Fill in for each entry.
Target: recombinant human SAE enzyme (Homo sapiens)
Sequence (Q9UBT2 whole entry): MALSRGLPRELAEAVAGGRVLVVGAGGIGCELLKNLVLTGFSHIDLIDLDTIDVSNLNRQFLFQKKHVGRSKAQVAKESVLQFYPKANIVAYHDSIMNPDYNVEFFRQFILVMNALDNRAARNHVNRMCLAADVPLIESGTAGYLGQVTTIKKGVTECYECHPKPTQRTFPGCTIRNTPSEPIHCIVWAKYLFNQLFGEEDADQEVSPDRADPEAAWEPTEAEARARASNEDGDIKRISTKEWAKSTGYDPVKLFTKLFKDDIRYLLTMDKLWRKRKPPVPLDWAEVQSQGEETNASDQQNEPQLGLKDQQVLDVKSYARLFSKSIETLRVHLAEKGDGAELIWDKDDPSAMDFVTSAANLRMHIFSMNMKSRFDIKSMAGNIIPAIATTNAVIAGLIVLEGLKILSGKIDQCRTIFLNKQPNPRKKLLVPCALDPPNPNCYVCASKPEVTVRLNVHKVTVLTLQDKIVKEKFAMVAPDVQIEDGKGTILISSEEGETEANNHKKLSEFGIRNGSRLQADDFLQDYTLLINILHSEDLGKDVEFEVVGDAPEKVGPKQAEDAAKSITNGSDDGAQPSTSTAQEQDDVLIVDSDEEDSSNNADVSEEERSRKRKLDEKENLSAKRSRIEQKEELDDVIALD
Sequence (Q9UBE0 whole entry partner): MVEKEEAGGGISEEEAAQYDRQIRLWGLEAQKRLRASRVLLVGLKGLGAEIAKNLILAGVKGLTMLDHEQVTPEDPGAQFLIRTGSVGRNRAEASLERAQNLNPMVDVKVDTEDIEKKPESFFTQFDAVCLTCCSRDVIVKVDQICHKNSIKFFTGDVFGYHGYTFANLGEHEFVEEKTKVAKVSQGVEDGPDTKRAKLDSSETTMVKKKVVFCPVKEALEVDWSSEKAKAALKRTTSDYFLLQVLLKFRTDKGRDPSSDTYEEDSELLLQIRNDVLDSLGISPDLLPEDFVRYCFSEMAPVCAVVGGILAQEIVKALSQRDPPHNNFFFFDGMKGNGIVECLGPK
Assay: SAE HTRF Enzyme Assay
Type: biochemical
Details: compound concentration 0.111 μM; read-out: Percent Inhibition
Dear colleague, please return just the value in %, with no unit written.

Inquiry: Which value of inhibition at 0.111 µM has been reported for NS(=O)(=O)OC[C@H]1C[C@@H](Nc2ncncc2C(=O)c2ccn(Cc3cc(C(F)(F)F)cc(C(F)(F)F)c3)c2)C[C@@H]1O [Compound I-168] in the records?
Reply text: 94

Inquiry: I have this compound here, N[C@@H]1[C@H](O)[C@@H](COS(N)(=O)=O)C[C@H]1Nc1ncncc1C(=O)c1ccn(Cc2cccc(Br)c2)n1 [Compound I-370] , and I need its recorded inhibition at 0.111 µM.
Reply text: 78

Inquiry: Can you share its inhibition at 0.111 µM? I mean this compound: NS(=O)(=O)OC[C@H]1C[C@@H](Nc2ncncc2C(=O)c2ccn(Cc3cc(C(F)(F)F)co3)c2)[C@@H](F)[C@@H]1O [Compound I-114]
Reply text: 98

Inquiry: Quick one: inhibition at 0.111 µM of NS(=O)(=O)OC[C@H]1C[C@@H](Nc2ncncc2C(=O)c2cc(Cl)n(Cc3cccc(Cl)c3)c2)[C@@H](F)[C@@H]1O [Compound I-61] ?
Reply text: 99

Inquiry: // lookup inhibition at 0.111 µM for NS(=O)(=O)OC[C@H]1C[C@@H](Nc2ncncc2C(=O)c2ccn(Cc3cccc(Br)c3F)n2)C[C@@H]1O [Compound I-282]
Reply text: 100

Inquiry: Would you kindly share the measured inhibition at 0.111 µM for CCOCCn1ccc(C(=O)c2cncnc2N[C@@H]2C[C@H](COS(N)(=O)=O)[C@@H](O)[C@H]2O)n1 [Compound I-28] ?
Reply text: 78

Inquiry: Quick one: inhibition at 0.111 µM of NS(=O)(=O)OC[C@H]1C[C@@H](Nc2ccncc2C(=O)c2ccn(Cc3cccc(Cl)c3)c2)C[C@@H]1O [Compound I-201] ?
Reply text: 98

Inquiry: Which inhibition at 0.111 µM is listed for Cn1ccc(C(=O)c2cncnc2N[C@@H]2C[C@H](COS(N)(=O)=O)[C@@H](O)[C@H]2O)n1 [Compound I-345] ?
Reply text: 54

Inquiry: Quick check: inhibition at 0.111 µM of NS(=O)(=O)OC[C@H]1C[C@@H](Nc2ncncc2C(=O)c2ccn(Cc3ccccc3)n2)C(F)(F)[C@@H]1O [Compound I-203] ?
Reply text: 94

Inquiry: Any idea what its inhibition at 0.111 µM is? The compound is NS(=O)(=O)OC[C@H]1C[C@@H](Nc2ncncc2C(=O)c2ccn(Cc3c(F)c(F)c(F)c(F)c3F)n2)C[C@@H]1O [Compound I-202]
Reply text: 83

Inquiry: Fill in the blank: the reported inhibition at 0.111 µM of NS(=O)(=O)OC[C@H]1C[C@@H](Nc2ncncc2C(=O)c2cc(Cl)n(Cc3cccc(Br)c3)c2)[C@@H](F)[C@@H]1O [Compound I-244] is ____.
Reply text: 98

Inquiry: Given the compound N#CCn1ccc(C(=O)c2cncnc2N[C@@H]2C[C@H](COS(N)(=O)=O)[C@@H](O)C2)n1 [Compound I-108] , what is its reported inhibition at 0.111 µM?
Reply text: 18

Inquiry: Name the reported inhibition at 0.111 µM value associated with the compound C[Si](C)(C)c1cccc(Cn2ccc(C(=O)c3cncnc3N[C@@H]3C[C@H](COS(N)(=O)=O)[C@@H](O)C3)n2)c1 [Compound I-137]
Reply text: 78
